assay: Single-dose, open-label pharmacokinetics of herombopag in subjects with normal liver function, mild and moderate hepatic impairments; type: in vivo, human; settings: human, plasma, po, 7.5 mg, single 7.5 mg oral dose, empty stomach; moderate hepatic impairments (Child-Pugh: grade B); read-out: geometric mean of AUC0-∞
READOUT_NAME: AUC(0-inf) (ng·h/mL)
Quick reminder: number only, in ng·h/mL, skip the unit.

Find the recorded AUC(0-inf) belonging to CC1=NN(c2ccc3c(c2)CCCC3)C(=O)/C1=N\Nc1cccc(-c2ccc(C(=O)O)o2)c1O [herombopag] and report it.
1660

----------
experiment: Single-dose, open-label pharmacokinetics of herombopag in subjects with normal liver function, mild and moderate hepatic impairments; assay type: in vivo, human; conditions: human, plasma, po, 7.5 mg, single 7.5 mg oral dose, empty stomach; normal liver function; read-out: geometric mean of AUC0-∞
READOUT_NAME: AUC(0-inf)
Entry format: amount then unit.

Fill blank: measured AUC(0-inf) of the compound CC1=NN(c2ccc3c(c2)CCCC3)C(=O)/C1=N\Nc1cccc(-c2ccc(C(=O)O)o2)c1O is ____.
929 ng·h/mL

----------
experiment: Single-dose, open-label pharmacokinetics of herombopag in subjects with normal liver function, mild and moderate hepatic impairments; format: in vivo, human; settings: human, plasma, po, 7.5 mg, single 7.5 mg oral dose, fasted; normal liver function group (n = 8); Median (Min-Max); read-out: Tmax
READOUT_NAME: Tmax (h)
State the answer as a number, implicitly in h.

Param item = CC1=NN(c2ccc3c(c2)CCCC3)C(=O)/C1=N\Nc1cccc(-c2ccc(C(=O)O)o2)c1O ; retrieve measured Tmax.
8

----------
experiment: Single-dose, open-label pharmacokinetics of herombopag in subjects with normal liver function, mild and moderate hepatic impairments; format: in vivo, human; conditions: human, plasma, po, 7.5 mg, single 7.5 mg oral dose, empty stomach; moderate hepatic impairments (Child-Pugh: grade B); read-out: median of Tmax
READOUT_NAME: Tmax (h)
Give the number; h is assumed, so skip it.

Field request: Tmax | item: CC1=NN(c2ccc3c(c2)CCCC3)C(=O)/C1=N\Nc1cccc(-c2ccc(C(=O)O)o2)c1O
2

----------
assay: Single-dose, open-label pharmacokinetics of herombopag in subjects with normal liver function, mild and moderate hepatic impairments; assay type: in vivo, human; details: human, plasma, oral, 7.5 mg, geometric least squares mean; moderate hepatic impairment group, n 8; read-out: AUC0-∞ GLSM
READOUT_NAME: AUC(0-inf)
Remember to quote the unit after the number.

Given CC1=NN(c2ccc3c(c2)CCCC3)C(=O)/C1=N\Nc1cccc(-c2ccc(C(=O)O)o2)c1O [herombopag] , state its recorded AUC(0-inf).
1610 ng·h/mL

----------
Test: Single-dose, open-label pharmacokinetics of herombopag in subjects with normal liver function, mild and moderate hepatic impairments
Type: in vivo, human
Conditions: human, plasma, po, 7.5 mg, single 7.5 mg oral dose, empty stomach; moderate hepatic impairments (Child-Pugh: grade B); read-out: arithmetic mean of t1/2 (converted)
Description: Example 1: Study of Pharmacokinetics and Safety of Trial Drug in Subjects with Mild Hepatic Impairments (Child-Pugh: Grade A), Moderate Hepatic Impairments (Child-Pugh: Grade B), and Normal Liver Function […] The severity of the hepatic functional impairments in the subjects was assessed using the Child-Pugh score (mild: grade A, a score of 5 or 6; moderate: grade B, a score of 7-9). […]
READOUT_NAME: half-life (h)
// note: answer is a bare numeric in h

Quick check: half-life of CC1=NN(c2ccc3c(c2)CCCC3)C(=O)/C1=N\Nc1cccc(-c2ccc(C(=O)O)o2)c1O ?
36.3
